Below, each of the compounds is paired with its reported F7 enzyme activity (Ratio using MC3 as 1) value.
# System: F7
# METHOD: In vivo F7 knockdown, plasma F7 enzyme activity (BIOPHEN FVII), Balb/c mice
# MEASUREMENT_CONTEXT: i.v. 0.025 mg siRNA/kg, plasma at 24 hours, relative plasma F7 activity of MC3 LNP as 1
# Description: Then, each prepared F7siRNA-loaded lipid nanoparticles were administered to Balb/c mice (Charles River Laboratories Japan, Inc., 5 weeks old, female) and in vivo F7 knockdown activity was examined. […] Relative plasma F7 enzyme activity (%) of mice administered each F7siRNA-loaded lipid nanoparticles was calculated using plasma F7 enzyme activity of untreated mice as 100%. […]
Just the number, please.

Query :: Please list F7 enzyme activity (Ratio using MC3 as 1) recorded for the compound CCCCC(CC)C(=O)OCCCCCCC(O)(CCCCCCOC(=O)C(CC)CCCC)CCCCOC(=O)C1CCN(C)CC1 (stereo not shown) [CL15F 6-2]
Result :: 1.87

Query :: Please list F7 enzyme activity (Ratio using MC3 as 1) recorded for the compound CCCCCCC(CCCCC)C(=O)OCCCCCCC(O)(CCCCCCOC(=O)C(CCCCC)CCCCCC)CCCCN(CCC)CCC (stereo not shown)
Result :: 0.38

Query :: Please list F7 enzyme activity (Ratio using MC3 as 1) recorded for the compound CCCCCCCC(CCC)C(=O)OCCCCCCC(O)(CCCCCCOC(=O)C(CCC)CCCCCCC)CCCCOC(=O)C1CCN(C)CC1 (stereo not shown) [CL15F 9-3]
Result :: 1.50

Query :: Please list F7 enzyme activity (Ratio using MC3 as 1) recorded for the compound CCCCCC(CCCCC)C(=O)OCCCCCCC(O)(CCCCCCOC(=O)C(CCCCC)CCCCC)CCCCOC(=O)C1CCN(C)CC1 [CL15F 7-5]
Result :: 1.74

Next item in the queue.
Query :: Please list F7 enzyme activity (Ratio using MC3 as 1) recorded for the compound CCCCCCCC(CCCCCCC)C(=O)OCCCCCCC(O)(CCCCCCOC(=O)C(CCCCCCC)CCCCCCC)CCCCOC(=O)C1CCN(C)CC1 [CL15F 9-7]
Result :: 0.60

----------
# METHOD: Nucleic acid encapsulation rate by Ribogreen (section II)
# Assay type: physicochemical
# MEASUREMENT_CONTEXT: pFluc-loaded LNP, N/P ratio 6
Below, each of the molecules is paired with its reported % pDNA encapsulation value.
State the answer as a number, implicitly in %.

Query :: Please list % pDNA encapsulation recorded for the molecule CCCCCCCCC(CCCCCC)C(=O)OCCCCCCC(O)(CCCCCCOC(=O)C(CCCCCC)CCCCCCCC)CCCCN(CCC)CCC (stereo not drawn) [CL4F6]
Result :: 97.1

Query :: Please list % pDNA encapsulation recorded for the molecule CCCCCCCCC(CCCCCC)C(=O)OCCCCCCC(O)(CCCCCCOC(=O)C(CCCCCC)CCCCCCCC)CCCCOC(=O)C1CCN(C)CC1 (stereo not drawn) [CL15F6]
Result :: 95.4

Query :: Please list % pDNA encapsulation recorded for the molecule CCCCCCCC/C=C\CCCCCCCC(=O)OCCCCCCC(O)(CCCCCCOC(=O)CCCCCCC/C=C\CCCCCCCC)CCCCOC(=O)C1CCN(C)CC1 [CL15H6, reference compound]
Result :: 72.4

Query :: Please list % pDNA encapsulation recorded for the molecule CCCCCCCC/C=C\CCCCCCCC(=O)OCCCCCCC(O)(CCCCCCOC(=O)CCCCCCC/C=C\CCCCCCCC)CCCCN(CCC)CCC [CL4H6, reference compound]
Result :: 41.5

Further cases:
Query :: Please list % pDNA encapsulation recorded for the molecule CC(CCC(C(=O)OCCCCCCC(O)(CCCCCCOC(=O)C(CCC(C)CC(C)(C)C)C(C)CC(C)(C)C)CCCCOC(=O)C1CCN(C)CC1)C(C)CC(C)(C)C)CC(C)(C)C (stereo not drawn) [CL15G6]
Result :: 94.7

Query :: Please list % pDNA encapsulation recorded for the molecule CCCN(CCC)CCCCC(O)(CCCCCCOC(=O)C(CCC(C)CC(C)(C)C)C(C)CC(C)(C)C)CCCCCCOC(=O)C(CCC(C)CC(C)(C)C)C(C)CC(C)(C)C (stereo not drawn) [CL4G6]
Result :: 97.6

----------
# System: liver
# METHOD: In vivo Fluc activity of FlucmRNA-loaded LNP by in vivo imaging, liver
# MEASUREMENT_CONTEXT: Balb/c mice, FlucmRNA-loaded LNP i.v. 0.1 mg mRNA/kg, 6 hours
READOUT_TYPE: Fluc Activity in liver (Avg Radiance [p/s/cm2/sr])
State the answer as a number, implicitly in Avg Radiance [p/s/cm2/sr].

Below, each entry is followed by its recorded Fluc Activity in liver result.
Query :: Output reported Fluc Activity in liver of the molecule CC(CCC(C(=O)OCCCCCCC(O)(CCCCCCOC(=O)C(CCC(C)CC(C)(C)C)C(C)CC(C)(C)C)CCCCOC(=O)C1CCN(C)CC1)C(C)CC(C)(C)C)CC(C)(C)C (stereo not drawn) on liver.
Result :: 6.52E+06

Query :: Output reported Fluc Activity in liver of the molecule CCCCCCCCCCCC(CCC)C(=O)OCCCCCCC(O)(CCCCCCOC(=O)C(CCC)CCCCCCCCCCC)CCCCN(CCC)CCC (stereo not drawn) on liver.
Result :: 7.34E+07

Next item in the queue.
Query :: Output reported Fluc Activity in liver of the molecule CCCCCC(CCCCC)C(=O)OCCCCCCC(O)(CCCCCCOC(=O)C(CCCCC)CCCCC)CCCCN(CCC)CCC on liver.
Result :: 4.56E+07

----------
Below, each of the molecules is paired with its reported period for which quality remained good, 25° C. value.
# METHOD: Storage stability of FlucmRNA-loaded LNP at −80, 5, 25 and 40° C.
# Type: physicochemical
# MEASUREMENT_CONTEXT: maximum storage period 5 weeks
State the answer as a number, implicitly in weeks.

Query :: Please list period for which quality remained good, 25° C. recorded for the molecule CCCCCCC(CCCCC)C(=O)OCCCCCCC(O)(CCCCCCOC(=O)C(CCCCC)CCCCCC)CCCCN(CCC)CCC (stereo not shown)
Result :: 5

Query :: Please list period for which quality remained good, 25° C. recorded for the molecule CCCCCCCC(CCCCCCC)C(=O)OCCCCCCC(O)(CCCCCCOC(=O)C(CCCCCCC)CCCCCCC)CCCCOC(=O)C1CCN(C)CC1 [CL15F 9-7]
Result :: 5

Query :: Please list period for which quality remained good, 25° C. recorded for the molecule CCCCCCCCC(CCCCCC)C(=O)OCCCCCCC(O)(CCCCCCOC(=O)C(CCCCCC)CCCCCCCC)CCCCOC(=O)C1CCN(C)CC1 (stereo not shown)
Result :: 5

Query :: Please list period for which quality remained good, 25° C. recorded for the molecule CCCCCCCCCCC(CCCCCC)C(=O)OCCCCCCC(O)(CCCCCCOC(=O)C(CCCCCC)CCCCCCCCCC)CCCCN(CCC)CCC (stereo not shown)
Result :: 5

Query :: Please list period for which quality remained good, 25° C. recorded for the molecule CCCCCCCCC(CCCCCCCC)C(=O)OCCCCCCC(O)(CCCCCCOC(=O)C(CCCCCCCC)CCCCCCCC)CCCCOC(=O)C1CCN(C)CC1 [CL15F 10-8]
Result :: 5

Further cases:
Query :: Please list period for which quality remained good, 25° C. recorded for the molecule CCCCCCCCCCCCCCC(C)C(=O)OCCCCCCC(O)(CCCCCCOC(=O)C(C)CCCCCCCCCCCCCC)CCCCOC(=O)C1CCN(C)CC1 (stereo not shown) [CL15F 16-1]
Result :: 0

----------
Below, each of the compounds is paired with its reported % siRNA encapsulation value.
# METHOD: siRNA/mRNA encapsulation rate by Ribogreen reagent (section IV)
# Type: physicochemical
# MEASUREMENT_CONTEXT: F7siRNA-loaded LNP, 50:10:38.5:1.5, N/P ratio 6
State the answer as a number, implicitly in %.

Below, each entry is followed by its recorded % siRNA encapsulation result.
Query :: Please list % siRNA encapsulation recorded for the compound CCCCCCCCC(CCCCCC)C(=O)OCCCCCCC(O)(CCCCCCOC(=O)C(CCCCCC)CCCCCCCC)CCCCOC(=O)C1CCN(C)CC1 (stereo not drawn) [CL15F6]
Result :: 100.5

Query :: Please list % siRNA encapsulation recorded for the compound CCCCCCCCCCCCCCCC(=O)OCCCCCCC(O)(CCCCCCOC(=O)CCCCCCCCCCCCCCC)CCCCOC(=O)C1CCN(C)CC1 [CL15F 16-0]
Result :: 101.0

Further cases:
Query :: Please list % siRNA encapsulation recorded for the compound CCCCCCCC(CCCCCCC)C(=O)OCCCCCCC(O)(CCCCCCOC(=O)C(CCCCCCC)CCCCCCC)CCCCN(CCC)CCC [CL4F 9-7]
Result :: 99.9

----------
# METHOD: Average particle size (ζ-Average) and PDI by dynamic light scattering (Zetasizer Nano ZSP)
# Assay type: physicochemical
# MEASUREMENT_CONTEXT: FlucmRNA-loaded LNP, lipid:DSPC:cholesterol:DMG-PEG2K 50:10:38.5:1.5
READOUT_TYPE: ζ-Average (nm)
State the answer as a number, implicitly in nm.

Query :: Please list ζ-Average (nm) recorded for the molecule CCCCCCCC(CCC)C(=O)OCCCCCCC(O)(CCCCCCOC(=O)C(CCC)CCCCCCC)CCCCN(CCC)CCC (stereo not shown)
Result :: 102.80

Further cases:
Query :: Please list ζ-Average (nm) recorded for the molecule CCCCCCCC(CCCCC)C(=O)OCCCCCCC(O)(CCCCCCOC(=O)C(CCCCC)CCCCCCC)CCCCOC(=O)C1CCN(C)CC1 (stereo not shown) [CL15F 9-5]
Result :: 135.00

Query :: Please list ζ-Average (nm) recorded for the molecule CCCCCCCCC(CCCCCC)C(=O)OCCCCCCC(O)(CCCCCCOC(=O)C(CCCCCC)CCCCCCCC)CCCCOC(=O)C1CCN(C)CC1 (stereo not shown)
Result :: 115.50

Query :: Please list ζ-Average (nm) recorded for the molecule CCCCCCCCCCC(CCCC)C(=O)OCCCCCCC(O)(CCCCCCOC(=O)C(CCCC)CCCCCCCCCC)CCCCN(CCC)CCC (stereo not shown)
Result :: 84.57
